# TARGET_OR_TEST_SYSTEM: Disintegrin and metalloproteinase domain-containing protein 17 (Sus scrofa, UniProt O77636)
# Sequence (O77636 whole entry, the tested form may be a part): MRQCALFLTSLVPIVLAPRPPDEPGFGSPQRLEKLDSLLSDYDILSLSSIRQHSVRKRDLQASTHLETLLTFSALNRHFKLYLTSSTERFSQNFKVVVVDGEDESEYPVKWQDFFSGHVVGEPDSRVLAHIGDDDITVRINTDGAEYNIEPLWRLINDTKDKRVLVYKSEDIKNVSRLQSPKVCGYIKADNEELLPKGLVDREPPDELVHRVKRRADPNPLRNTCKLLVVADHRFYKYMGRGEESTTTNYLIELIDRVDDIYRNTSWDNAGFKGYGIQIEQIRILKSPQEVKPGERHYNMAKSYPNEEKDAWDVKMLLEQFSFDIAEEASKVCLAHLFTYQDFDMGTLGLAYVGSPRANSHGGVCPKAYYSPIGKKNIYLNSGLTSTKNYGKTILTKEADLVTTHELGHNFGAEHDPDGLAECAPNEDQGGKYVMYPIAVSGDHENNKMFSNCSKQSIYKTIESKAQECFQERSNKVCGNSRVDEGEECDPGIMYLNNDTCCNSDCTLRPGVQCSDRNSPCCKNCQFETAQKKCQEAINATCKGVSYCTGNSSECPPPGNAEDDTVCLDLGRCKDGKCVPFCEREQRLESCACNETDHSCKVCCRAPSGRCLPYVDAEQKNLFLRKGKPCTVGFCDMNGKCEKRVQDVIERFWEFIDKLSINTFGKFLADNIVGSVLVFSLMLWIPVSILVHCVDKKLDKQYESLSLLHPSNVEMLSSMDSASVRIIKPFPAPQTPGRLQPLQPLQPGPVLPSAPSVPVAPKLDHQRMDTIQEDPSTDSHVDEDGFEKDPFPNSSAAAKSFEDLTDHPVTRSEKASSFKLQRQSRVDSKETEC
pIC50: −log10 of the molar value.
Mark yes for reported pIC50 of 8 or greater; mark no for anything smaller.

# example entries with known answers
[[record]]
compound = "Cc1cc(COc2ccc([C@]3(C)CCN([C@H](C)C(=O)NO)C3=O)cc2)c2ccccc2n1 (stereo in doubt; 5s)"
assigned_label = "yes"

[[record]]
compound = "CC(C)Cc1ccc([C@]2(C)CCN([C@H](C)C(=O)NO)C2=O)cc1"
assigned_label = "no"

[[record]]
compound = "C[C@H](C(=O)NO)N1CC[C@@](C)(c2ccc(OCc3ccnc4ccccc34)cc2)C1=O"
assigned_label = "yes"

[[record]]
compound = "C[C@H](C(=O)NO)N1CC[C@@](C)(c2ccc(OCc3ccccc3)cc2)C1=O"
assigned_label = "yes"

[[record]]
compound = "C[C@H](C(=O)NO)N1CC[C@@](C)(c2ccc(OC(C)(C)C)cc2)C1=O"
assigned_label = "no"

[[record]]
compound = "C[C@H](C(=O)NO)N1CC[C@@](C)(c2ccc(OCc3ccncc3)cc2)C1=O"
assigned_label = "no"

[[record]]
compound = "C[C@H](C(=O)NO)N1CC[C@@](C)(c2ccccc2)C1=O"
assigned_label = "no"

[[record]]
compound = "Cc1cc(C)cc(COc2ccc([C@]3(C)CCN([C@H](C)C(=O)NO)C3=O)cc2)c1"
assigned_label = "yes"

[[record]]
compound = "C=CCOc1ccc([C@]2(C)CCN([C@H](C)C(=O)NO)C2=O)cc1"
assigned_label = "no"

[[record]]
compound = "COc1ccc([C@]2(C)CCN([C@H](C)C(=O)NO)C2=O)cc1"
assigned_label = "no"


Input: Item Cc1cncc(C)c1COc1ccc([C@]2(C)CCN([C@H](C)C(=O)NO)C2=O)cc1 (stereo in doubt; 5q) with pIC50 of 8 or above?
Output: yes

Input: Item `C[C@H](C(=O)NO)N1CC[C@@](C)(c2ccc(Oc3ccccc3)cc2)C1=O` with pIC50 of 8 or above?
Output: no

Input: Item `C[C@H](C(=O)NO)N1CC[C@@](C)(c2ccc(OCc3ccccc3[N+](=O)[O-])cc2)C1=O` with pIC50 of 8 or above?
Output: yes

Input: Item `C[C@H](C(=O)NO)N1CC[C@@](C)(c2ccc(OCc3cc(C(F)(F)F)cc(C(F)(F)F)c3)cc2)C1=O` with pIC50 of 8 or above?
Output: yes

Input: Item `C[C@H](C(=O)NO)N1CC[C@@](C)(c2ccc(-c3ccccc3)cc2)C1=O` with pIC50 of 8 or above?
Output: no

---

compounds and their reported Ki
# TARGET_OR_TEST_SYSTEM: 72 kDa type IV collagenase (Homo sapiens, UniProt P08253)
# Sequence (P08253 whole entry): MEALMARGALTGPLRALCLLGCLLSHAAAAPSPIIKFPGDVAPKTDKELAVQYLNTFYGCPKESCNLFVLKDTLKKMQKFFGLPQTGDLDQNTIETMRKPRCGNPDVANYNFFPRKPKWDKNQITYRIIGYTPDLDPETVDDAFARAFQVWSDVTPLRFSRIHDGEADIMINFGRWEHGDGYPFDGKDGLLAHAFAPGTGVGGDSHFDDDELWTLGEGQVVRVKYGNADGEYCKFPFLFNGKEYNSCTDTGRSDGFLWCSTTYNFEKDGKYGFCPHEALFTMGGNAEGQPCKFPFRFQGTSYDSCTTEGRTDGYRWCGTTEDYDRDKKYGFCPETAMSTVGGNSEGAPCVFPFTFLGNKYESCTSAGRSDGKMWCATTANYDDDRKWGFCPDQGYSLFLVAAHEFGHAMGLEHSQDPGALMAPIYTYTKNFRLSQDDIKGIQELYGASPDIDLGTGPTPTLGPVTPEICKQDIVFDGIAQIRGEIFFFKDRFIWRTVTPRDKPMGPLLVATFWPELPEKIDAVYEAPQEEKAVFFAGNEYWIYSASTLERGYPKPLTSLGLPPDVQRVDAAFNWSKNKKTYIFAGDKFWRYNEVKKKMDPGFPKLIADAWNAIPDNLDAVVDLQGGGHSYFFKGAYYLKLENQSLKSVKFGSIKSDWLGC
# MEASUREMENT_PROTOCOL: Affinity for Matrix metalloprotease-2 (MMP-2)

Input: Please respond with reported Ki (system 72 kDa type IV collagenase (Homo sapiens, UniProt P08253)) for `C=CCOc1ccc([C@]2(C)CCN([C@H](C)C(=O)NO)C2=O)cc1` .
Output: 14 nM

---

# MEASUREMENT_PROTOCOL: The compound was administered intravenously at a dose of 4 mg/Kg for determination of volume of distribution at steady state
# Type: ADME, organism-based, Canis lupus familiaris
# SETTINGS: dog, in vivo, iv, read-out: Vss
PROPERTY_LABEL: Vd
# include the unit after the value

Input: Using the record for Cc1cc(COc2ccc([C@]3(C)CCN([C@H](C)C(=O)NO)C3=O)cc2)c2ccccc2n1 (stereo in doubt) , state its measured Vd.
Output: 0.93 L/kg
